Where do the numbers come from? From PubChem BioAssay (EPA / NIEHS).

STUDY SYSTEM: Cellular tumor antigen p53 (Homo sapiens)
METHOD SUMMARY: TOX21_p53_BLA_p2_ratio: Tox21 HCT-116 p53 Agonism Beta-lactamase Assay, Ratio, Phase 2 (AID 2283592)
Results filed as inconclusive are left out. Calls of active or inactive are those of the source. The calls were made as follows: active = hit-call score of the fitted dose curve at least 0.9, where 1 is the maximum; inconclusive = response in the unintended direction; inactive = score below 0.9.
VALUE TYPE: AC50

A selection of reference data follows.
CC(=O)OO	inactive
Nc1cc(Cl)ccc1O	49.9 µM (active)
Oc1c(Cl)c(Cl)cc(Cl)c1Cl	12.2 µM (active)
CCCC(=O)OC(C(Cl)(Cl)Cl)P(=O)(OC)OC (configuration not stated)	inactive

# per-item lookup of AC50; items listed below
1. C[C@]12C[C@H]3S[C@H]3C[C@@H]1CC[C@@H]1[C@@H]2CC[C@]2(C)[C@@H](O)CC[C@@H]12
2. O=C1CN(O)C(c2ccccc2)=c2cc(Cl)ccc2=N1
3. O=c1c2ccccc2[se]n1-c1ccccc1

## Result
1: inactive; 2: inactive; 3: inactive

====

METHOD SUMMARY: CCTE_Mundy_HCI_hNP1_Casp3_7: CCTE's Caspase-Glo 3/7 Assay in human neuroprogenitor cells for Apoptosis, Mundy Lab (AID 2284240)
The source made the active and inactive calls. Rule for the calls: active = hit-call score of the fitted dose curve at least 0.9, where 1 is the maximum; inactive = score below 0.9.
Bench note: report the call from Yes = active, No = inactive

Look over these answered cases.
O.O.O.O.O.[Cd+2].[Cd+2].[Cl-].[Cl-].[Cl-].[Cl-]	Yes
CC1(C)[C@H](C(=O)O[C@H](C#N)c2cccc(Oc3ccccc3)c2)[C@@H]1C=C(Br)Br	No
CCOP(=O)(OCC)OC(Cl)C(Cl)(Cl)Cl (centres undefined)	No

## Task Just curious, what result did [Cd+2].[Cl-].[Cl-] get here?
## Result No

====

STUDY SYSTEM: Nuclear receptor subfamily 1 group I member 2 (Homo sapiens) (UniProt O75469)
Sequence (O75469 whole entry, looked up): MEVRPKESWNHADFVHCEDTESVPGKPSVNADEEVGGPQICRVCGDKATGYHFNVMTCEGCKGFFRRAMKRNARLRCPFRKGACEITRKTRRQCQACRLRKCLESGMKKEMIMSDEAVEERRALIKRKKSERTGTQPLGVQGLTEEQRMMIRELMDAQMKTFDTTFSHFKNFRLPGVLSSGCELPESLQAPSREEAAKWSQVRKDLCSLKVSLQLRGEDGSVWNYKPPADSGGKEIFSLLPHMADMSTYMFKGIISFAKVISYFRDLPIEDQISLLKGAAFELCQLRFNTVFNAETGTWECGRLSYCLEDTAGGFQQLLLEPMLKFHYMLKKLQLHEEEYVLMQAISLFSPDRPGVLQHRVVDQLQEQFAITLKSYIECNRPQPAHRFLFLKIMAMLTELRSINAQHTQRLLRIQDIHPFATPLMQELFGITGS
METHOD SUMMARY: ATG_PXR_TRANS: Attagene TRANS-FACTORIAL HepG2 Assay for human Pregnane X Receptor (PXR) (AID 2283008)
Inconclusive results are not listed. Calls of active or inactive are those of the source. How the source made its calls: active means hit-call score of the fitted dose curve at least 0.9, where 1 is the maximum; inconclusive means response in the unintended direction; inactive means score below 0.9.
Hi! Could you answer with just one of these? active, inactive

Use these answered entries as a reference point.
Nc1cc(Cl)cc(Cl)c1	inactive
CCN(CC)C(=S)S	active
O=c1[nH]c(Cl)c(Cl)cc1Cl	inactive

## Task So what was the verdict on N#Cc1cc(I)c(O)c(I)c1 in this test?
## Result inactive

## Task Try N#Cc1cccc(C#N)c1 next.
## Result inactive

====

Read-out: Matrix Metallopeptidase 1 (MMP1), MMP1 (gene 4312)
METHOD SUMMARY: BSK_BE3C_MMP1: BioMAP Diversity Plus: BE3C Assay for Matrix Metallopeptidase 1 (MMP1) Biomarker Activity (AID 2283024)
ASSAY SETUP: primary human bronchial epithelial cells; actives raise or lower the signal
The source made the active and inactive calls. Rule for the calls: active = hit-call score of the fitted dose curve at least 0.9, where 1 is the maximum; inactive = score below 0.9.
VALUE TYPE: AC50

Worked cases, answers included:
CC1(C)[C@H](C(=O)O[C@H](C#N)c2cccc(Oc3ccccc3)c2)[C@@H]1C=C(Br)Br	inactive
O=c1c2ccccc2c(=O)c2c1cc(Cl)c1[nH]c3c([nH]c12)c(Cl)cc1c(=O)c2ccccc2c(=O)c13	20 µM (active)
CC(C)CCCCCCCOP(=O)(Oc1ccccc1)Oc1ccccc1	inactive
O=[N+]([O-])c1ccc(Cl)cc1	inactive
C=CC(=O)OCC(CC)CCCC (configuration not stated)	inactive
CC(C)CCCCCCCOC(=O)c1ccccc1C(=O)OCCCCCCCC(C)C	inactive

For each of the molecules below, state AC50.
1. Oc1cc(Cl)ccc1Cl
2. O=[N+]([O-])C=Cc1ccccc1
3. CCCCCCCCCCCC#N

## Result
["inactive", "11.3 µM (active)", "inactive"]
